- System Name: human alpha 7-wt nAChR (Homo sapiens, UniProt P36544)
- Construct: expressed in transfected cells
- Sequence (P36544 23-502): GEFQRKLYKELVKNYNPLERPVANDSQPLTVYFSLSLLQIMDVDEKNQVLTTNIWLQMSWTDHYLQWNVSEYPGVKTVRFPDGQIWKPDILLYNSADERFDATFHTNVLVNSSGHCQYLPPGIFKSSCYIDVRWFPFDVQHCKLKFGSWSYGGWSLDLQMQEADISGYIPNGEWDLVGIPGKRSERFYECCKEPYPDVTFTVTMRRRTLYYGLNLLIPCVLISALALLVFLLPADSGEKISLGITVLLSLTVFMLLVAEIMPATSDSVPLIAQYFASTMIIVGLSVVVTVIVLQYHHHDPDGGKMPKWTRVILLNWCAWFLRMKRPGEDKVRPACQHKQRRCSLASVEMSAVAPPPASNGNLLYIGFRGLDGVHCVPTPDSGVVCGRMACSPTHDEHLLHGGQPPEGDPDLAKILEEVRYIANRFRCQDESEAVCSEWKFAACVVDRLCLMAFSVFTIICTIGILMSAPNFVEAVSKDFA
- Experimental Details: Ca2+ flux imaging (FDSS) (Protocol B)
- Assay type: cell-based
- Conditions Used: potentiation of 100 μM choline; compounds 0.01 μM to 30 μM; read-out: a7-PAM-G_[33]_pEC50 pEC50 (converted)
Readout Label: EC50 (nM)

Compound String | System Name | Experimental Value
Cc1cc(-c2sc(N3C[C@@H](C)O[C@@H](C)C3)nc2CNC(=O)c2cc(C)on2)cc(C)n1 | human alpha 7-wt nAChR (Homo sapiens, UniProt P36544) | 813
C[C@@H]1CN(c2nc(CNC(=O)CC3CC3)c(-c3ccncc3)s2)C[C@H](C)O1 | human alpha 7-wt nAChR (Homo sapiens, UniProt P36544) | 7410
Cc1cc(-c2sc(N3CCO[C@H](C(F)(F)F)C3)nc2CNC(=O)CC2CC2)cc(C)n1 | human alpha 7-wt nAChR (Homo sapiens, UniProt P36544) | 234
Cc1cc(-c2sc(N3C[C@@H](C)O[C@@H](C)C3)nc2CNC(=O)c2ccccc2F)ccn1 | human alpha 7-wt nAChR (Homo sapiens, UniProt P36544) | 661
Cc1cc(-c2sc(N3CCOCC3)nc2CNC(=O)c2ccc(F)cc2)cc(C)n1 | human alpha 7-wt nAChR (Homo sapiens, UniProt P36544) | 1200

A = Cc1cc(-c2sc(N3C[C@@H](C)O[C@@H](C)C3)nc2CNC(=O)c2ccc(Cl)cc2Cl)cc(C)n1
B = Cc1cc(-c2sc(N3C[C@@H](C)O[C@@H](C)C3)nc2CNC(=O)c2oncc2C)cc(C)n1
C = COCCC(=O)NCc1nc(N2C[C@@H](C)O[C@@H](C)C2)sc1-c1cc(C)nc(C)c1
D = Cc1nocc1C(=O)NCc1nc(N2C[C@@H](C)O[C@@H](C)C2)sc1-c1ccncc1
Problem: Order field: EC50 | Direction: descending (largest first) Give the order by naming the labels one after another as requested.
Result: D, C, B, A
(D: 6610 nM, C: 2820 nM, B: 1230 nM, A: 83.2 nM)

====

- System Name: human alpha 7-wt nAChR (Homo sapiens, UniProt P36544)
- Construct: expressed in transfected cells
- Experimental Details: Ca2+ flux imaging (FDSS) (Protocol B)
- Assay type: cell-based
- Conditions Used: potentiation of 100 μM choline; compounds 0.01 μM to 30 μM; read-out: a7-PAM-G_[33]_pEC50 pEC50 (converted)
Readout Label: EC50 (µM)

Compound | System Name | EC50 / µM
Cc1nocc1C(=O)NCc1nc(N2C[C@@H](C)O[C@@H](C)C2)sc1-c1ccnc(C(F)(F)F)c1 [Compound 197] | human alpha 7-wt nAChR (Homo sapiens, UniProt P36544) | 0.363

A = Cc1cc(-c2sc(N3C[C@@H](C)O[C@@H](C)C3)nc2CNC(=O)COCC(F)(F)F)cc(C)n1 [Compound 175]
B = Cc1cc(-c2sc(N3CC(C)OC(C)C3)nc2CNC(=O)c2cc(C)on2)cc(C)n1 (racemic) [Compound 59]
C = Cc1cc(-c2sc(N3C[C@@H](C)O[C@@H](C)C3)nc2CNC(=O)c2ccc(F)c(C(F)(F)F)c2)cc(C)n1 [Compound 33]
Problem: List from greatest to least EC50. Response format: the labels, sorted as the prompt asks.
Result: B, A, C

====

- System Name: human alpha 7-wt nAChR-expressing GH4C1 cells (Homo sapiens, UniProt P36544)
- Construct: expressed in transfected cells
- Experimental Details: Patch-clamp current recording (whole-cell voltage-clamp, PAM type classification)
- Type: cell-based
- Design: key: Type 0 compounds minimally change the effect size of the current elicited by 1 mM choline.; Type 1 compounds enhance the effect size of the current elicited by 1 mM choline but minimally alter the kinetics of the receptor.; Type 2 compounds enhance the effect size of the current elicited by 1 mM choline while reducing the rate and/or the extent of desensitization.; Type 3 compounds enhance the effect size of the current elicited by 1 mM choline. When tested at higher concentrations up to 10 μM they completely inhibit desensitization; Type 4 compounds allow for an initial desensitization of the receptor followed by a re-opening of the receptor during agonist application
- Conditions Used: 1 mM choline
Readout Label: PAM_Type PAM type
Lab note: record the figure alone, no unit after it.

Molecule | PAM_Type PAM type
Cc1cc(-c2sc(N3C[C@@H](C)O[C@@H](C)C3)nc2CNC(=O)c2ccc(S(N)(=O)=O)cc2)cc(C)n1 [Compound 144] | 2

Problem: Tell me measured PAM_Type PAM type for Cc1cc(-c2sc(N3C[C@@H](C)O[C@@H](C)C3)nc2CNC(=O)Cc2c(C)noc2C)cc(C)n1 [Compound 166] please.
Result: 1

Problem: Assign PAM_Type PAM type to the following record: Cc1cc(-c2sc(N3C[C@@H](C)O[C@@H](C)C3)nc2CNC(=O)C2CC(=O)OC2(C)C)cc(C)n1 (stereo partly shown) [Compound 154]
Result: 1

Problem: Note down PAM_Type PAM type recorded for Cc1cc(-c2sc(N3CCO[C@H](C(F)(F)F)C3)nc2CNC(=O)CC2CC2)cc(C)n1 [Compound 192]
Result: 2

====

Readout Label: melting point (°C)

Compound | Readout Label | Experimental Value
Cc1cc(-c2sc(N3C[C@@H](C)O[C@@H](C)C3)nc2CNC(=O)c2ccon2)cc(C)n1 | melting point | 179
Cc1cc(-c2sc(N3CCOC(C(F)(F)F)C3)nc2CNC(=O)c2cc(C)on2)cc(C)n1 (centres unmarked) | melting point | 170
CC(C)CC(=O)NCc1nc(N2C[C@@H](C)O[C@@H](C)C2)sc1-c1ccncc1 | melting point | 173
Cc1cc(-c2sc(N3C[C@@H](C)O[C@@H](C)C3)nc2CNC(=O)c2ncoc2C)cc(C)n1 | melting point | 201
Cc1cc(-c2sc(N3C[C@@H](C)O[C@@H](C)C3)nc2CNC(=O)c2ccc(F)c(F)c2C)cc(C)n1 | melting point | 187
CCCC(=O)NCc1nc(N2C[C@@H](C)O[C@@H](C)C2)sc1-c1cc(C)nc(C)c1 | melting point | 155
COc1cc(-c2sc(N3C[C@@H](C)O[C@@H](C)C3)nc2CNC(=O)CC2CC2)cc(C)n1 | melting point | 171
Cc1ccc(-c2sc(N3C[C@@H](C)O[C@@H](C)C3)nc2CNC(=O)c2cccc(F)c2)cn1 | melting point | 147
Cc1cc(-c2sc(N3C[C@@H](C)O[C@@H](C)C3)nc2CNC(=O)c2conc2C)cc(C)n1 | melting point | 141
Cc1ccc(-c2sc(N3C[C@@H](C)O[C@@H](C)C3)nc2CNC(=O)c2cccc(Cl)c2)cn1 | melting point | 167
Cc1cc(-c2sc(N3C[C@@H](C)O[C@@H](C)C3)nc2CNC(=O)c2c(C)noc2C(F)(F)F)cc(C)n1 | melting point | 176
Cc1cc(-c2sc(N3CC4CCC(C3)O4)nc2CNC(=O)CC2CC2)cc(C)n1 | melting point | 161
Cc1cc(-c2sc(N3CCOC[C@@H]3C)nc2CNC(=O)CC2CC2)cc(C)n1 | melting point | 138
Cc1cc(-c2sc(N3C[C@@H](C)O[C@@H](C)C3)nc2CNC(=O)c2cccc(C(F)(F)F)c2)cc(C)n1 | melting point | 180

====

- System Name: human alpha 7-wt nAChR (Homo sapiens)
- Construct: expressed in transfected cells
- Experimental Details: Ca2+ flux imaging (FDSS) (Protocol B)
- Assay type: cell-based
- Conditions Used: potentiation of 100 μM choline; compounds 0.01 μM to 30 μM; read-out: a7-PAM-G_[33]_pEC50 pEC50 (converted)
Readout Label: EC50 (nM)

As a guide, the following entries are already answered.
Compound | Readout Label | Experimental Value
COc1cc(-c2sc(N3C[C@@H](C)O[C@@H](C)C3)nc2CNC(=O)c2cccc(F)c2)cc(C)n1 | EC50 | 708
Cc1cc(-c2sc(N3C[C@@H](C)O[C@@H](C)C3)nc2CNC(=O)c2ccon2)cc(C)n1 | EC50 | 1910

P = CCCC(=O)NCc1nc(N2CC(C)OC(C)C2)sc1-c1cc(C)nc(C)c1 (racemic)
Q = Cc1cc(-c2sc(N3C[C@@H](C)O[C@@H](C)C3)nc2CNC(=O)c2ccc(Cl)c(Cl)c2)cc(C)n1
Problem: Compare EC50: is it lower for P or for Q ? Give the chosen item's label as your response.
Result: Q

====

- System Name: human alpha 7-wt nAChR (Homo sapiens, UniProt P36544)
- Construct: expressed in transfected cells
- Experimental Details: Ca2+ flux imaging (FDSS) (Protocol B)
- Type: cell-based
- Conditions Used: efficacy of 100 μM choline defined as 100% in the absence of a PAM; read-out: a7-PAM-G_[33]_Eff_Curve_FI % Efficacy
Readout Label: Emax (%)

Compound | System Name | Experimental Value
Cc1cc(-c2sc(N3C[C@@H](C)O[C@@H](C)C3)nc2CNC(=O)c2ccccc2F)ccn1 [Compound 92] | human alpha 7-wt nAChR (Homo sapiens, UniProt P36544) | 523

P = Cc1ccc(-c2sc(N3C[C@@H](C)O[C@@H](C)C3)nc2CNC(=O)c2conc2C)cn1 [Compound 117]
Q = Cc1cc(-c2sc(N3C[C@@H](C)O[C@@H](C)C3)nc2CNC(=O)c2ccc(Cl)cc2)cc(C)n1 [Compound 19]
Problem: Returns: the label, P or Q , whose recorded Emax is the lower number. Record your answer as the label of the chosen record.
Result: Q
(Q: 378%, P: 665%)

Reference source for all entries: patent US8637510B2
